The reported numbers originate from patent US20240174690A1.

Measured log10(IC50) of individual entries
system: AsPC-1 cells; test: AsPC-1 CTG proliferation assay (120 h) (pancreatic cancer, G12D); type: cell-based; details: Homo sapiens, ASPC1
All values: base-10 log of IC50 in nM.

C[C@H](Oc1cc(-n2cncc3ccnc2-3)nc(-c2onc3c2CCC[C@@]32CCCc3sc(N)c(C#N)c32)n1)[C@@H]1CCCN1C
3.53

Query: Given the compound "C[C@H](Oc1nc(-c2noc3c2CCC[C@@]32CCCc3sc(N)c(C#N)c32)nc(N2CCNC3(CC3)C2)c1Cl)[C@@H]1C[C@@H](F)CN1C" , what is its reported log10(IC50)?
Result: 1.93

Query: Given the compound "C[C@H](Oc1cc(-n2cc3ccn(C4CCOCC4)c(=O)c3n2)nc(-c2noc3c2CCC[C@@]32CCCc3sc(N)c(C#N)c32)n1)[C@@H]1CCCN1C" , what is its reported log10(IC50)?
Result: 2.29

Query: Given the compound "C[C@H](Oc1cc(N2CCN(C)CC2)nc(-c2noc3c2CCC[C@@]32CCCc3sc(N)c(C#N)c32)n1)[C@@H]1CCCN1C" , what is its reported log10(IC50)?
Result: 2.87

Query: Given the compound "C[C@H](Oc1cc(-c2ccc(N)nc2)nc(-c2onc3c2CCC[C@@]32CCCc3sc(N)c(C#N)c32)n1)[C@@H]1CCCN1C" , what is its reported log10(IC50)?
Result: 3.54

Query: Given the compound "C[C@H](Oc1cc(-n2ccc(-c3cn([C@H]4CCOC4)nn3)n2)nc(-c2noc3c2CCC[C@@]32CCCc3sc(N)c(C#N)c32)n1)[C@@H]1CCCN1C" , what is its reported log10(IC50)?
Result: 2.23

###

assay: Plasma protein binding assay (PPB), equilibrium dialysis, 10% FCS in PBS; assay type: in vitro ADME; conditions: bovine, read-out: PPB 10% FCS (% fu)
Measured fraction unbound of individual entries
Write the number on its own, no unit after it.

Consider the reported fraction unbound for these molecules:
C[C@H](Oc1cc(N2C[C@@H]3[C@@H](N)[C@@H]3C2)nc(-c2noc3c2CCC[C@@]32CCCc3sc(N)c(C#N)c32)n1)[C@@H]1CCCN1C
0.26
C[C@H](Oc1cc(N2CC[C@H](N(C)C)C2)nc(-c2onc3c2CCC[C@@]32CCCc3sc(N)c(C#N)c32)n1)[C@@H]1CCCN1C
0.33
C[C@H](Oc1cc(-n2cccc3cnnc2-3)nc(-c2noc3c2CCC[C@@]32CCCc3sc(N)c(C#N)c32)n1)[C@@H]1CCCN1C
0.09
C[C@H](Oc1cc(-c2ccn(C[C@H]3CCOC3)n2)nc(-c2noc3c2CCC[C@@]32CCCc3sc(N)c(C#N)c32)n1)[C@@H]1CCCN1C
0.23
C[C@H](Oc1cc(-n2cc(-c3cccnc3)nn2)nc(-c2noc3c2CCC[C@@]32CCCc3sc(N)c(C#N)c32)n1)[C@@H]1CCCN1C
0.11

Now for a further molecule.
Query: Given the molecule "C[C@H](Oc1cc(-n2cc3ccn([C@H]4CCOC4)c(=O)c3n2)nc(-c2noc3c2CCC[C@@]32CCCc3sc(N)c(C#N)c32)n1)[C@@H]1CCCN1C" , what is its reported fraction unbound?
Result: 0.05
